- ASSAYED_SYSTEM: rat relaxin family peptide receptor 2 (RXFP2) (rat) (UniProt Q5ECL0)
- Sequence (Q5ECL0 entry or part of it): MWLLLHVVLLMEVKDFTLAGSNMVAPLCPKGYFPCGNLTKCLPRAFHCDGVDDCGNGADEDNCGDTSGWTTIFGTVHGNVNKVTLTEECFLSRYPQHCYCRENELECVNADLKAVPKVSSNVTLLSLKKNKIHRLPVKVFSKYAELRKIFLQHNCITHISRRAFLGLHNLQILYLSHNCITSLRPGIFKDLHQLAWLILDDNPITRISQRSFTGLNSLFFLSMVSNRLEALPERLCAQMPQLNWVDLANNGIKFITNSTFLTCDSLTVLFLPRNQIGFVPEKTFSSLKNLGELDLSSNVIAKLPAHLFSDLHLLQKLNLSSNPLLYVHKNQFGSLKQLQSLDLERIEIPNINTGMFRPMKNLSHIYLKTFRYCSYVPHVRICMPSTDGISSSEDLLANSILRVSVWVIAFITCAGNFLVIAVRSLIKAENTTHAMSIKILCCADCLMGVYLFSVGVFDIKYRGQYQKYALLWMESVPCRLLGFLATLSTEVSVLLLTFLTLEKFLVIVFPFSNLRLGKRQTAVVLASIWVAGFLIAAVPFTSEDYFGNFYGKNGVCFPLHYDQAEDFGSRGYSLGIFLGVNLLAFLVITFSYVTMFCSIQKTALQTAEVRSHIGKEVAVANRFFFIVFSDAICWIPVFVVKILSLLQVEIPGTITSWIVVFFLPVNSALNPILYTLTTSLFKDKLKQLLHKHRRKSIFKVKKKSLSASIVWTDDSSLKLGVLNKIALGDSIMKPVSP
EXPERIMENTAL_ENDPOINT: IC50, INSL3 (EC80)-stimulated cAMP in HEK293 stably expressing rat RXFP2
Numeric answer plus unit only.

RXFP2 mAb 4H1 (antibody, V domains shown) VH: QIQLVQSGPELKKPGETVKISCKTSGYTFTKYPMHWVKQAPGEGLKWMGWINTYSGLPTFADDFKGRFAFSLETSANTADLQINNLKNEDMATYFCAREGKKLSGYFDYWGQGTTLTVSS VL: DIKMTQSPSSMYASLGERVTITCKASQDINSYLTWFQQKPGQSPKTLIYRANRFVDGVPSRFSGSGSGQDYSLTITSLEYEDMGIYYCLQYDEFPYTFGGGTQLEIK; 150 nM
RXFP2 mAb 3F3 (antibody, V domains shown) VH: QVQLQQPGSVLVRPGASVKLSCKASGYIFTSYWMHWVKQRPGQGLEWIGEIYPNSGRTSYNEKFKGKATVTVDTSSSTAYVDLSSLTSEDSAVYYCASGGHWFAYWGQGTLVTVSA VL: DIQMTQSSSSFSVSLGDRVTITCKASEDIYNRLAWYQQKPGNAPRLLISGATSLEAGVPSRFSGSGSGKDYTLSITSLQTEDVSTYYCQQYWITPYTFGGGTKLEIK; 37 nM

Entry RXFP2 mAb 3H1 (antibody, V domains shown) VH: QVQLKETGPGLVAPSQSLSITCTVSGFSLTNYGVNWVRQPPGKGLEWLVVIWSDGSTNYNSALKSRLSISKDNSKSQVFLKMNSLQTDDTAMYYCARQQGYYAMDYWGQGTSVIVSS VL: DIQMTQSPASLSVSVGETVTITCRASENIYSNLAWYQQKQGKSPQLLVYAVTNLADGVPSRFSGSGSGTQYSLKINSLQSEDFGSYYCQHFWGPPYTFGGGTKLEIK ; IC50, INSL3 (EC80)-stimulated cAMP in HEK293 stably expressing rat RXFP2 = 15.8 nM

Measured IC50, INSL3 (EC80)-stimulated cAMP in HEK293 stably expressing rat RXFP2 of RXFP2 mAb 3G4 (antibody, V domains shown) VH: QVQLKESGPGLVAPSQSLSITCTVSGFSLTSYGVSWVRQPPGKGLEWLGVIWGDGSTNYHSALISRLSISKDNSKSQVFLKLNSLQTDDTATYYCAKSLGYYAMDYWGQGTSVTVSS VL: DIQMTQSPASLSVSVGETVTITCRASENIYSNLVWYQQKQGKSPQLLVYAATNLAEGVPSRFSGSGSGTQYSLKINSLQSEDFGSYYCQHFWGPPWTFGGGTKLEIK : 16.1 nM

What the record says about RXFP2 mAb 2D4 (antibody, V domains shown) VH: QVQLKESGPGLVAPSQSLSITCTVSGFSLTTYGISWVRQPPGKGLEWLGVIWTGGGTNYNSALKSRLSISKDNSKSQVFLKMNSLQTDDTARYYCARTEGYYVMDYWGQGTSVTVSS VL: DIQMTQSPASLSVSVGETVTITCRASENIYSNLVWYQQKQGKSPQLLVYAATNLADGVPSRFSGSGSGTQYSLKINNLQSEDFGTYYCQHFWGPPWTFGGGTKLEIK : IC50, INSL3 (EC80)-stimulated cAMP in HEK293 stably expressing rat RXFP2 is 21 nM

Reference for the values: paper PMC11162469
